All values here come from patent US5034396A.

Each item that follows carries a reported ARL (relative affinity for alpha2 adrenergic receptors, relative to phentolamine).
- Tested on: alpha2 adrenergic receptors
- Experimental Details: Affinity for the alpha2 adrenergic receptors (3H rauwolscine displacement, rat cortex membranes)
- Type: binding
- Condition: 3H rauwolscine 0.15 nM, 45 minutes at 25° C., from CD (phentolamine) and CX (product) concentrations inhibiting 50% of specific fixation
Give the figure only, with no unit attached.

Reference set, count: 3
O[C@H]1C[C@@H]2CCCN3CCc4c(n1c1ccccc41)[C@@H]23 0.3
C1=Cn2c3c(c4ccccc42)CCN2CCC[C@@H]1[C@H]32 633
O[C@@H]1C[C@H]2CCCN3CCc4c(n1c1ccccc41)[C@H]23 57

Consider the compound C1=Cn2c3c(c4ccccc42)CCN2CCC[C@H]1[C@@H]32 and give its measured ARL (relative affinity for alpha2 adrenergic receptors, relative to phentolamine).
8
